Provenance of the data: PubChem BioAssay

Assay: caspase-8 TRAIL sensitization, hit retest, confirmation, cell-based, NB7+caspase-8, with/without TRAIL, luminescence panel (AID 651596)
Conditions: NB7 neuroblastoma + caspase-8, without TRAIL, luminescence viability, without TRAIL, mean of runs, at 10 µM
# activity listing for each entry below
Your answer is read as %, so omit the unit and give the number.

> print(dat)
                                   molecule  reading
1  Cc1ccc(C)c(S(=O)(=O)N2CCN(c3ncnc4sccc34)CC2)c1       69
2          Nc1c2c(nc3sc4c(c13)CCCCC4)CCCCC2     47.8
3         CC(C)c1ccc(/C=C/C(=O)Nc2nncs2)cc1     66.2

Pending molecule:
Entry "Cc1ccc(NC(=O)CSc2ccc(-c3ccc4c(c3)OCO4)nn2)cc1F" , activity reported as 44.9
